The measurements presented in this section are drawn from patent US8808751B2.

# Test description: Pharmacokinetics after oral capsule administration, crossover study
# Type: in vivo
# Condition info: both sexes, dog, plasma, 12 beagle dogs, read-out: median time to maximum concentration (Tmax)
Counter-ions that a name gives are not always drawn.
Value type: Tmax (h)
Answers are plain numbers, in h.

Dear colleague, please send me the reported Tmax for O=C(c1ccc(OCCN2CCCCC2)cc1)c1c(-c2ccc(O)cc2)sc2cc(O)ccc12 [commercial raloxifene hydrochloride, raloxifene hydrochloride] when you can.
1.5
